testSystem: human MC3R (human, UniProt P41968 1-323)
Sequence (P41968 whole entry): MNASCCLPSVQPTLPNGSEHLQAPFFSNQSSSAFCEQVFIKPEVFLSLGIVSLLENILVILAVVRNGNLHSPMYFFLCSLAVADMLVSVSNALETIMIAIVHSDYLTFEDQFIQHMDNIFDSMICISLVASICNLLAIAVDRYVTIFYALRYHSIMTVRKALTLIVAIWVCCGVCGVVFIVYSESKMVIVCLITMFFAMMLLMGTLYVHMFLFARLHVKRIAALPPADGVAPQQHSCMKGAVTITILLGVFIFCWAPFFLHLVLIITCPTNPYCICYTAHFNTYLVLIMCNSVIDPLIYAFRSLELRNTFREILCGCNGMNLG
procedureDetails: cell-based or functional assay
Positions of bridges follow the written chain, without caps; N, C: chain ends. Non-standard residues stand in square brackets, D forms with d. dPhe(4-Br) = N[C@H](Cc1ccc(Br)cc1)C(=O)O
experimentalReadout: % max activation (%)
Numbers only, in %.

binder	unitSpec	% max activation
Ac-RC[dA]P[dPhe(4-Br)]R[dW]C-NH2 (disulfide 2-8; SMILES CC(=O)N[C@@H](CCCNC(=N)N)C(=O)N[C@H]1CSSC[C@@H](C(N)=O)NC(=O)[C@@H](Cc2c[nH]c3ccccc23)NC(=O)[C@H](CCCNC(=N)N)NC(=O)[C@@H](Cc2ccc(Br)cc2)NC(=O)[C@@H]2CCCN2C(=O)[C@@H](C)NC1=O) [CTX-1249]	%	1.9
Ac-RC[dA]R[dPhe(4-Br)]R[dW]CK-NH2 (disulfide 2-8; SMILES CC(=O)N[C@@H](CCCNC(=N)N)C(=O)N[C@H]1CSSC[C@@H](C(=O)N[C@@H](CCCCN)C(N)=O)NC(=O)[C@@H](Cc2c[nH]c3ccccc23)NC(=O)[C@H](CCCNC(=N)N)NC(=O)[C@@H](Cc2ccc(Br)cc2)NC(=O)[C@H](CCCNC(=N)N)NC(=O)[C@@H](C)NC1=O) [CTX-1218]	%	16

Next up:
Ask: What % max activation value was documented for this binder, Ac-RC[dA]R[dPhe(4-Br)]RWC-NH2 (disulfide 2-8) [CTX-2205] ?
Result: 13
